Target: Estrogen receptor (Homo sapiens);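 note: potency for inhibiting coactivator peptide recruitment to the receptor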
Sequence (P03372 whole entry): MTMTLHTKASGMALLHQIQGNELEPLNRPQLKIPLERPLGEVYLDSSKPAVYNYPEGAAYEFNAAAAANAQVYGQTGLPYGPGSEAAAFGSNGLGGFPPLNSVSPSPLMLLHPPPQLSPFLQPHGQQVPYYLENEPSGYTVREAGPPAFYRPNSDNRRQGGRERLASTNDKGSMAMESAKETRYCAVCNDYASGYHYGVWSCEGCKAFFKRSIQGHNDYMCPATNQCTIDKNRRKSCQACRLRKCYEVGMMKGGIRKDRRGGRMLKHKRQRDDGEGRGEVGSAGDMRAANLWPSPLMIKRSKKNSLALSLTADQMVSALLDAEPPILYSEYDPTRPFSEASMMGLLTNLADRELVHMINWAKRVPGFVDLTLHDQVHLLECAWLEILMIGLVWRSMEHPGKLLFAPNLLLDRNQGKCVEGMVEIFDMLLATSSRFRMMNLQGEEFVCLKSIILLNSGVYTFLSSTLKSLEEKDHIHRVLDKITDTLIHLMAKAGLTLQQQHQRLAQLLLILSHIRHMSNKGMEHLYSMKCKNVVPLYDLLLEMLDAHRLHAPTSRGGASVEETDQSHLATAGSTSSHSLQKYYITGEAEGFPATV
Calls of active or inactive are those of the source.
property: IC50

Below, each entry is followed by its recorded IC50 result.
{"columns": ["substance_smiles", "IC50"],
 "data": [
  ["Cc1ccccc1NC(=O)CSc1nnc(-c2ccco2)c(-c2ccco2)n1", "14.9 µM (active)"],
  ["Cc1cccc(-n2c(SCc3cc(=O)n4ccsc4n3)nc3ccccc32)c1", "> 50 µM (not active)"]
]}

Note IC50 for the compound shown: COc1ccc2c(c1)CC/C(=C\c1ccc(OC)c(Cn3nc(C)cc3C)c1)C2=O
> 50 µM (not active)

Give me measured IC50, please, for this compound: Cc1cc(=O)oc2c(CN3CCC(C)CC3)c(O)c(Cl)cc12
23.7 µM (active)

Return value of IC50 for input Cc1ccccc1Nc1nc(N)nc(CSc2nc3ccccc3c(=O)n2C)n1 , no commentary.
> 50 µM (not active)

Output measured IC50 for this item: CSc1ccc(S(=O)(=O)Nc2cccc(F)c2)cc1
23.7 µM (active)
